target: T1, HLA-A*02:01 (peptide-receptive MHC class I monomer from UV-ligand exchange) (human); assay: UV-exchange ELISA (anti-b2m); exchange yield grade: + >=10%, ++ >=20%, +++ >=50%, ++++ >=75%
T1 construct: Monomers were captured on streptavidin-coated plates
endpoint_label: peptide exchange yield

May I ask what peptide exchange yield has been recorded for FLDANGHFV [peptide FLDANGHFV (SEQ ID NO 23)] ?
50 to 75%

May I ask what peptide exchange yield has been recorded for MLDDRAYLV [peptide MLDDRAYLV (SEQ ID NO 128)] ?
20 to 50%

May I ask what peptide exchange yield has been recorded for TLAKYLMEL [peptide TLAKYLMEL (SEQ ID NO 126)] ?
50 to 75%

May I ask what peptide exchange yield has been recorded for TLMAEMHVV [peptide TLMAEMHVV (SEQ ID NO 50)] ?
50 to 75%

May I ask what peptide exchange yield has been recorded for RLLDFPEAMVL [peptide RLLDFPEAMVL (SEQ ID NO 165)] ?
≥ 75%

May I ask what peptide exchange yield has been recorded for FLLAEDTKV [peptide FLLAEDTKV (SEQ ID NO 13)] ?
50 to 75%

May I ask what peptide exchange yield has been recorded for VLLNEILEQV [peptide VLLNEILEQV (SEQ ID NO 139)] ?
50 to 75%

May I ask what peptide exchange yield has been recorded for GLSEGHTFQV [peptide GLSEGHTFQV (SEQ ID NO 101)] ?
50 to 75%

May I ask what peptide exchange yield has been recorded for RLAELTVDEFLA [peptide RLAELTVDEFLA (SEQ ID NO 127)] ?
50 to 75%
